Source of measurements: ChEMBL document CHEMBL4219210

assay: Oral bioavailability in BALB/c mouse plasma at 3 mg/kg by LC-MS/MS analysis; format: ADME, organism-based
Outcome measure: bioavailability (%)
The reply should be a number in %, with the unit left off.

Cpd smiles | bioavailability / %
COc1ncc(-c2cc(NC(=O)c3coc(CN4CCN(C(C)C)CC4)n3)c3cnn(C)c3n2)cc1NS(C)(=O)=O | 16
COc1ncc(-c2cc(O[C@@H]3CCN(Cc4c(C)nn(C)c4C)C3)c3cnn(C)c3n2)cc1NS(C)(=O)=O | 49

Request: I'd like to know its bioavailability. The molecule in question is "COc1ncc(-c2cc(O[C@@H]3CCN(C(=O)C4CCOCC4)C3)c3cnn(C)c3n2)cc1NS(C)(=O)=O"
Response: 71.1
